- TARGET: PPARγ–DRIP2 interaction (Homo sapiens)
- Sequence (P37231 238-503 limits assumed): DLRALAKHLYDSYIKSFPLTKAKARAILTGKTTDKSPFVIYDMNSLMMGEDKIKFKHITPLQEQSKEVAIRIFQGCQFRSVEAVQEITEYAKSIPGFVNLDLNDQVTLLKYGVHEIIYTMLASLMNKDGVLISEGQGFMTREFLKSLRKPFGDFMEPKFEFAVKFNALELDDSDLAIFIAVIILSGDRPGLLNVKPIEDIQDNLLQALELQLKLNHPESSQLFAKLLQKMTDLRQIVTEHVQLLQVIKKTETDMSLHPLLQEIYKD
- TEST NAME: FP assay PPARγ–DRIP2
READOUT KIND: IC50

molecule="Cc1cc(SCc2sc(-c3ccc(C(F)(F)F)c(F)c3)nc2C)ccc1OCC(=O)O [GW0742]" readout_kind=IC50 result="> 86 µM"

----------
- TARGET: TRβ–SRC2–2 interaction (Homo sapiens)
- Sequence (P10828 217-461 limits assumed): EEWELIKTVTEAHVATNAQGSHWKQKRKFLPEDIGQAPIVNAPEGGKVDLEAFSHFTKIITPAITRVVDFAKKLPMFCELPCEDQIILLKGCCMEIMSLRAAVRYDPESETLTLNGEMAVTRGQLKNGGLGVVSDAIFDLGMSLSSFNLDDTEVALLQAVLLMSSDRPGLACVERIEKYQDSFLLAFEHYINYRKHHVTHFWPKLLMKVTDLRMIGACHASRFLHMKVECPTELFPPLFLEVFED
- TEST NAME: FP assay TRβ–SRC2–2 inhibition
pIC50: −log10 of the molar value.
READOUT KIND: pIC50

molecule="Cc1cc(SCc2sc(-c3ccc(C(F)(F)F)c(F)c3)nc2C)ccc1OCC(=O)O [GW0742]" quantitative_readout=4.22

Every entry's value here was drawn from paper PMC3724348.
